Assay: yeast display, Sf9 membrane polyspecificity reagent, FACS + sequencing; frameworks hold sequencing errors
endpoint: polyreactivity (PSR sort gate)

Known polyreactivity (PSR sort gate) results, listed for orientation:
QVQLVESGGGLVQAGGSLRLSCAASGSTFHYYAMGWYRQAPGKERELVATITSSGCSTYYADSVKGRFTISRDNAKNTVYLQMNSLKPEDTAVYYCNKKSYYRDYGRYDYWGQGSQVTVSS ... low polyreactivity
QVQLVESGGGLVQAGGTLRLICAASGLTFGRYAMGWYRQAPGKERELVASISQRGGSTYYADSVKGRFTISRDNAKNTVYLQMNSLKPEDTAVYYCAARRYYRGEYDYWGQGTQVTVSS ... low polyreactivity
QVHLVESGGGLVQAGGSLRLSSAASGSTFDYYAMGWYRQAPGKERELVAAISVGGGGTTYADSVKGRFTISRDNAKNTVYFQMNCLNPEDTAVYYCAARYRTRKRPGSKYYYWGQGTQVTVSS ... high polyreactivity
QVQLVESGGGLVQAGGSLRLSCAASGRTIYQYAMGWYRQAPGKERELVAAISRGGSTNYADSLKGRFTISRDNAKNTVFLQMHSLKPEDTAVYYCASWYKFLSLKRLYERDYWGQGTQVTVSS ... high polyreactivity
QVQLVESGGGLVQAGGSLRLSCAASGSIFFKYTMGWYRQAPGKERELVAAITYTGGRTYYADSVKGRFTISRDNAKNTVYLQMNSLKPEDTAVYFCNKVTPRQGNRLAGVSGYDYWGQGTQVTVSS ... high polyreactivity

Qu. GET /values?readout=polyreactivity (PSR sort gate)&item= QVQLVESGGGLVQAGGSLRLSCAASGITFRTNTMGWSRQAPGKERELVAAITWDGGSTYYADSVKGRFTISRDNAKNTVYLQMNSLKPEDTAVYYCAARLSYLYGLYPYYYWGQGTQVTVSS
Ans. high polyreactivity

Qu. Sample QVQLVESGGGLVQAGGSLRLSCAASGIIFWFYAMGWYRQAPGKERELVAAISGDGDSTYYADSVKGRFTISRDNAKNTVYLQMNSLKPEDTAVYYCAAEWDPVFATDEDDYWGQGTQVTVSS — what was its polyreactivity (PSR sort gate)?
Ans. low polyreactivity

Qu. For the sequence QVQLVESGGGLVQAGGSLRLSCAASGRTFVSNAMGWYRQAPGKERELVAAITQSGGSTYADSVKGRFTISRDNAKNTVYLQLNSLKPEDTAVYYCNSEHAFVGTYYERHDYWGQGTQVTVSS , what polyreactivity (PSR sort gate) is on record?
Ans. low polyreactivity

---

Assay: yeast display, Sf9 membrane polyspecificity reagent, FACS + sequencing; frameworks hold sequencing errors
endpoint: polyreactivity (PSR sort gate)

QVQLVESGGGLVQAGGSLRLSCAASGFIFGYYAMGWYRQAPGKERELVAAISGDAGRTYYADSVKGRFTISRDNAKNTVYLQMNSLKAEDTAVYYCAAADTYKMDYWGQGTQVTVSS ... low polyreactivity
QVQLVESGGGLVQAGGSLRLSCAASGITFEYYDMGWYRQAPGKERELVAAISWSTDITYADSVKGRFTISRDNAKNTVYLQMNSLKPEDTAVYYCAASTYEYTSYDYWGHGTQVTVSS ... low polyreactivity
QVQLVESGGGLVQAGGSLRLSCAASGRIFVVYTMRWYRQAPGNERELVASIRGSGDSTNYADSVKGRFTISRDNAKNTVYLQMNSLKPEDTAVYYCAADLPWSRRYSYRYGYWGQGTQVTVSS ... low polyreactivity
QVQLVESGGGLVQAGGSLRLSCAASGSIFKWYAMGWYRQAPGKEREFVAAITNGGGSTYYADSVKGRFTISRDNAKNTVYLQMNSLKPEDTAVYYCAKDGHSYYPWEYDYWGQGTQVTVSS ... low polyreactivity
